target-of-assay: T1, IL-1β (UniProt P01584 117-269)
T1 construct: Antigen of XPA23
experiment-notes: Biacore, Fab periplasmic extract
measured-property: fold difference in affinity against the original (fold)

binder | observed-measurement
XPA23 heavy chain G100T (Fab, V domains shown, Fab, periplasmic extract; also called C5A G100T) VH: EVQLLESGGGLVQPGGSLRLSCAASGFTFSKYFMFWVRQAPGKGLEWVSVISPSGGMTRYADSVKGRFTISRDNSKNTLYLQMNSLRAEDTAVYYCARVTYGGNSDYWGQGTLVTVSS VL: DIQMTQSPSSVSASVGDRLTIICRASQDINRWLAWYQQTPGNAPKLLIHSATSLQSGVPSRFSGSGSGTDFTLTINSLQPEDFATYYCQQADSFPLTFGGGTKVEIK | 0.12
XPA23 heavy chain F33P (Fab, V domains shown, Fab, periplasmic extract; also called C5A F33P) VH: EVQLLESGGGLVQPGGSLRLSCAASGFTFSKYPMFWVRQAPGKGLEWVSVISPSGGMTRYADSVKGRFTISRDNSKNTLYLQMNSLRAEDTAVYYCARVGYGGNSDYWGQGTLVTVSS VL: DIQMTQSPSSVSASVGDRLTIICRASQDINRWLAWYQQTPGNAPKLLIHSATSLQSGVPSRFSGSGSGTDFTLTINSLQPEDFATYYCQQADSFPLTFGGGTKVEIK | 0.91
XPA23 heavy chain Y107T (Fab, V domains shown, Fab, periplasmic extract; also called C5A Y107T) VH: EVQLLESGGGLVQPGGSLRLSCAASGFTFSKYFMFWVRQAPGKGLEWVSVISPSGGMTRYADSVKGRFTISRDNSKNTLYLQMNSLRAEDTAVYYCARVGYGGNSDTWGQGTLVTVSS VL: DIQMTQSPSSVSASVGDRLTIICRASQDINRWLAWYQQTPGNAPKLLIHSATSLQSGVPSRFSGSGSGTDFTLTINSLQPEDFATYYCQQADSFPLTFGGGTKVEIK | 0.83
XPA23 heavy chain Y101I (Fab, V domains shown, Fab, periplasmic extract; also called C5A Y101I) VH: EVQLLESGGGLVQPGGSLRLSCAASGFTFSKYFMFWVRQAPGKGLEWVSVISPSGGMTRYADSVKGRFTISRDNSKNTLYLQMNSLRAEDTAVYYCARVGIGGNSDYWGQGTLVTVSS VL: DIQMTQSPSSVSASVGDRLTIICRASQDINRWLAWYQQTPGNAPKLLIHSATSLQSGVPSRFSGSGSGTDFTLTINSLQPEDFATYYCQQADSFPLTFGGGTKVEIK | 0.83
XPA23 heavy chain F33V (Fab, V domains shown, Fab, periplasmic extract; also called C5A F33V) VH: EVQLLESGGGLVQPGGSLRLSCAASGFTFSKYVMFWVRQAPGKGLEWVSVISPSGGMTRYADSVKGRFTISRDNSKNTLYLQMNSLRAEDTAVYYCARVGYGGNSDYWGQGTLVTVSS VL: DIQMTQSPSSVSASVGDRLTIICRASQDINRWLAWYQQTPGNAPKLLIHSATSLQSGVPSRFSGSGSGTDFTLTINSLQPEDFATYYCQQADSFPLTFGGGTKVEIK | 0.76
XPA23 heavy chain Y101P (Fab, V domains shown, Fab, periplasmic extract; also called C5A Y101P) VH: EVQLLESGGGLVQPGGSLRLSCAASGFTFSKYFMFWVRQAPGKGLEWVSVISPSGGMTRYADSVKGRFTISRDNSKNTLYLQMNSLRAEDTAVYYCARVGPGGNSDYWGQGTLVTVSS VL: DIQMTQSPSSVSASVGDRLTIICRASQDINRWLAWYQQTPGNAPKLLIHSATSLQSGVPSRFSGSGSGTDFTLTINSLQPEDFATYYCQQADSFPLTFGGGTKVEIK | 0.04
XPA23 heavy chain Y107L (Fab, V domains shown, Fab, periplasmic extract; also called C5A Y107L) VH: EVQLLESGGGLVQPGGSLRLSCAASGFTFSKYFMFWVRQAPGKGLEWVSVISPSGGMTRYADSVKGRFTISRDNSKNTLYLQMNSLRAEDTAVYYCARVGYGGNSDLWGQGTLVTVSS VL: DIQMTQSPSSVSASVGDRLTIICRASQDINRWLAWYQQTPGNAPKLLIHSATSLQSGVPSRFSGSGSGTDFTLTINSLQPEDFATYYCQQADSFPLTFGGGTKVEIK | 0.86
XPA23 heavy chain S54I (Fab, V domains shown, Fab, periplasmic extract; also called C5A S54I) VH: EVQLLESGGGLVQPGGSLRLSCAASGFTFSKYFMFWVRQAPGKGLEWVSVISPIGGMTRYADSVKGRFTISRDNSKNTLYLQMNSLRAEDTAVYYCARVGYGGNSDYWGQGTLVTVSS VL: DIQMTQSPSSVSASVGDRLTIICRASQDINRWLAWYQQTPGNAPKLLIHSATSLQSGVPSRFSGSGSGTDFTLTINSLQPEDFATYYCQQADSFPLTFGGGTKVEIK | 0.86
XPA23 heavy chain V99T (Fab, V domains shown, Fab, periplasmic extract; also called C5A V99T) VH: EVQLLESGGGLVQPGGSLRLSCAASGFTFSKYFMFWVRQAPGKGLEWVSVISPSGGMTRYADSVKGRFTISRDNSKNTLYLQMNSLRAEDTAVYYCARTGYGGNSDYWGQGTLVTVSS VL: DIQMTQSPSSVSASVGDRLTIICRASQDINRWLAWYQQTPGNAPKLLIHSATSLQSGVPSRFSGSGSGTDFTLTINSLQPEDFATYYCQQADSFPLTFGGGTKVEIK | 0.1
XPA23 heavy chain G56P (Fab, V domains shown, Fab, periplasmic extract; also called C5A G56P) VH: EVQLLESGGGLVQPGGSLRLSCAASGFTFSKYFMFWVRQAPGKGLEWVSVISPSGPMTRYADSVKGRFTISRDNSKNTLYLQMNSLRAEDTAVYYCARVGYGGNSDYWGQGTLVTVSS VL: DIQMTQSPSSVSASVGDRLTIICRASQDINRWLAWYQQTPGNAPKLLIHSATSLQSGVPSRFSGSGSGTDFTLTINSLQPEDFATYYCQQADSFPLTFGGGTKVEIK | 0.85
